ASSAY_TEXT: activity coefficient (dimensionless); of the first substance listed, at infinite dilution; xn = mol fraction of the nth substance listed
CONDITION: 328.15 K; 101 kPa; Liquid; Chromatography; x1 = 0
Label rule, in plain words: activity coefficient of 2 and up is 1.0, under 2 is 0.0.

Would you please look over these solved cases?
c1ccccc1 [benzene] + O=S(=O)([N-]S(=O)(=O)C(F)(F)F)C(F)(F)F.OCCC[n+]1ccccc1    0.0
CCC(C)(C)C [2,2-dimethylbutane] + O=S(=O)([N-]S(=O)(=O)C(F)(F)F)C(F)(F)F.OCCC[n+]1ccccc1    1.0
CC(=O)O [acetic acid] + O=S(=O)([N-]S(=O)(=O)C(F)(F)F)C(F)(F)F.OCCC[n+]1ccccc1    0.0
O [water] + O=S(=O)([N-]S(=O)(=O)C(F)(F)F)C(F)(F)F.OCCC[n+]1ccccc1    0.0
Cc1ccccc1 [toluene] + O=S(=O)([N-]S(=O)(=O)C(F)(F)F)C(F)(F)F.OCCC[n+]1ccccc1    1.0

q: hey, is activity coefficient for this one >= 2? CO [methanol] + O=S(=O)([N-]S(=O)(=O)C(F)(F)F)C(F)(F)F.OCCC[n+]1ccccc1
a: 0.0

q: What do we get for C=CCCCC [hex-1-ene] + O=S(=O)([N-]S(=O)(=O)C(F)(F)F)C(F)(F)F.OCCC[n+]1ccccc1 ?
a: 1.0

q: What do we get for CCc1ccccc1 [ethylbenzene] + O=S(=O)([N-]S(=O)(=O)C(F)(F)F)C(F)(F)F.OCCC[n+]1ccccc1 ?
a: 1.0

q: What do we get for Cc1ccccc1C [1,2-dimethylbenzene] + O=S(=O)([N-]S(=O)(=O)C(F)(F)F)C(F)(F)F.OCCC[n+]1ccccc1 ?
a: 1.0

q: What do we get for C=CCCCCCCCC [1-decene] + O=S(=O)([N-]S(=O)(=O)C(F)(F)F)C(F)(F)F.OCCC[n+]1ccccc1 ?
a: 1.0

q: What do we get for C#CCCCCCC [1-octyne] + O=S(=O)([N-]S(=O)(=O)C(F)(F)F)C(F)(F)F.OCCC[n+]1ccccc1 ?
a: 1.0

q: What do we get for CC1CCCCC1 [methylcyclohexane] + O=S(=O)([N-]S(=O)(=O)C(F)(F)F)C(F)(F)F.OCCC[n+]1ccccc1 ?
a: 1.0

q: What do we get for C1=CCCCC1 [cyclohexene] + O=S(=O)([N-]S(=O)(=O)C(F)(F)F)C(F)(F)F.OCCC[n+]1ccccc1 ?
a: 1.0

q: What do we get for C=CCCC [1-pentene] + O=S(=O)([N-]S(=O)(=O)C(F)(F)F)C(F)(F)F.OCCC[n+]1ccccc1 ?
a: 1.0

q: What do we get for C1COCCO1 [1,4-dioxane] + O=S(=O)([N-]S(=O)(=O)C(F)(F)F)C(F)(F)F.OCCC[n+]1ccccc1 ?
a: 0.0

q: What do we get for CCOCC [diethyl ether] + O=S(=O)([N-]S(=O)(=O)C(F)(F)F)C(F)(F)F.OCCC[n+]1ccccc1 ?
a: 1.0

q: What do we get for CCC(=O)CC [pentan-3-one] + O=S(=O)([N-]S(=O)(=O)C(F)(F)F)C(F)(F)F.OCCC[n+]1ccccc1 ?
a: 0.0

q: What do we get for CCO [ethanol] + O=S(=O)([N-]S(=O)(=O)C(F)(F)F)C(F)(F)F.OCCC[n+]1ccccc1 ?
a: 0.0

q: What do we get for CCCOCCC [dipropyl ether] + O=S(=O)([N-]S(=O)(=O)C(F)(F)F)C(F)(F)F.OCCC[n+]1ccccc1 ?
a: 1.0

q: What do we get for CCCCCCCC [octane] + O=S(=O)([N-]S(=O)(=O)C(F)(F)F)C(F)(F)F.OCCC[n+]1ccccc1 ?
a: 1.0

q: What do we get for CCCCCC [hexane] + O=S(=O)([N-]S(=O)(=O)C(F)(F)F)C(F)(F)F.OCCC[n+]1ccccc1 ?
a: 1.0

* * *

ASSAY_TEXT: activity coefficient (dimensionless); of the first substance listed, at infinite dilution; xn = mol fraction of the nth substance listed
CONDITION: 338.15 K; 101 kPa; Liquid; Chromatography; x1 = 0
Binarize activity coefficient at 30; below is label 1, at or above is label 0.

Would you please look over these solved cases?
CCCCCCC [heptane] + O=S(=O)([N-]S(=O)(=O)C(F)(F)F)C(F)(F)F.OCCC[n+]1ccccc1    label 0
CCOCC [diethyl ether] + O=S(=O)([N-]S(=O)(=O)C(F)(F)F)C(F)(F)F.OCCC[n+]1ccccc1    label 1
C=CCCCC [hex-1-ene] + O=S(=O)([N-]S(=O)(=O)C(F)(F)F)C(F)(F)F.OCCC[n+]1ccccc1    label 1
C1CCCCCCC1 [cyclooctane] + O=S(=O)([N-]S(=O)(=O)C(F)(F)F)C(F)(F)F.OCCC[n+]1ccccc1    label 0
C1CCCCCC1 [cycloheptane] + O=S(=O)([N-]S(=O)(=O)C(F)(F)F)C(F)(F)F.OCCC[n+]1ccccc1    label 1

q: Is 30 strictly greater than the molecule's reported activity coefficient? molecule: CCC(=O)CC [pentan-3-one] + O=S(=O)([N-]S(=O)(=O)C(F)(F)F)C(F)(F)F.OCCC[n+]1ccccc1
a: label 1

q: What do we get for O [water] + O=S(=O)([N-]S(=O)(=O)C(F)(F)F)C(F)(F)F.OCCC[n+]1ccccc1 ?
a: label 1

* * *

Measured activity coefficient accompanies every entry in the list below.
ASSAY_TEXT: activity coefficient (dimensionless); of the first substance listed, at infinite dilution; xn = mol fraction of the nth substance listed
CONDITION: 338.15 K; 101 kPa; Liquid; Chromatography; x1 = 0
Just the number, please, no unit attached.

Illustrative cases are given below, each with its answer.
CCCCCCCCCC [decane] + O=S(=O)([N-]S(=O)(=O)C(F)(F)F)C(F)(F)F.OCCC[n+]1ccccc1    214
C1COCCO1 [1,4-dioxane] + O=S(=O)([N-]S(=O)(=O)C(F)(F)F)C(F)(F)F.OCCC[n+]1ccccc1    0.568
C#CCCCCC [1-heptyne] + O=S(=O)([N-]S(=O)(=O)C(F)(F)F)C(F)(F)F.OCCC[n+]1ccccc1    9.21

q: // lookup activity coefficient for C=CCCCCCC [oct-1-ene] + O=S(=O)([N-]S(=O)(=O)C(F)(F)F)C(F)(F)F.OCCC[n+]1ccccc1
a: 44.4

* * *

ASSAY_TEXT: activity coefficient (dimensionless); of the first substance listed, at infinite dilution; xn = mol fraction of the nth substance listed
CONDITION: 378.15 K; 101 kPa; Liquid; Chromatography; x1 = 0
OBSERVABLE: activity coefficient
Just the number, please, no unit attached.

Illustrative cases are given below, each with its answer.
Cc1ccccc1C [1,2-dimethylbenzene] + O=S(=O)([N-]S(=O)(=O)C(F)(F)F)C(F)(F)F.OCCC[n+]1ccccc1    3.15
C1COCCO1 [1,4-dioxane] + O=S(=O)([N-]S(=O)(=O)C(F)(F)F)C(F)(F)F.OCCC[n+]1ccccc1    0.672

Okay, now this molecule:
q: // lookup activity coefficient for CO [methanol] + O=S(=O)([N-]S(=O)(=O)C(F)(F)F)C(F)(F)F.OCCC[n+]1ccccc1
a: 0.703

* * *

ASSAY_TEXT: activity coefficient (dimensionless); of the first substance listed, at infinite dilution; xn = mol fraction of the nth substance listed
CONDITION: 318.15 K; 101 kPa; Liquid; Chromatography; x1 = 0
OBSERVABLE: activity coefficient

Illustrative cases are given below, each with its answer.
C1CCOC1 [tetrahydrofuran] + O=S(=O)([N-]S(=O)(=O)C(F)(F)F)C(F)(F)F.OCCC[n+]1ccccc1    0.695
C1=CCCCC1 [cyclohexene] + O=S(=O)([N-]S(=O)(=O)C(F)(F)F)C(F)(F)F.OCCC[n+]1ccccc1    11
C1COCCO1 [1,4-dioxane] + O=S(=O)([N-]S(=O)(=O)C(F)(F)F)C(F)(F)F.OCCC[n+]1ccccc1    0.514

q: // lookup activity coefficient for c1ccccc1 [benzene] + O=S(=O)([N-]S(=O)(=O)C(F)(F)F)C(F)(F)F.OCCC[n+]1ccccc1
a: 1.58

q: What do we get for O [water] + O=S(=O)([N-]S(=O)(=O)C(F)(F)F)C(F)(F)F.OCCC[n+]1ccccc1 ?
a: 1.53

q: What do we get for C#CCCCCCC [1-octyne] + O=S(=O)([N-]S(=O)(=O)C(F)(F)F)C(F)(F)F.OCCC[n+]1ccccc1 ?
a: 15.5

q: What do we get for CCCO [propan-1-ol] + O=S(=O)([N-]S(=O)(=O)C(F)(F)F)C(F)(F)F.OCCC[n+]1ccccc1 ?
a: 1.6

q: What do we get for CCC(=O)CC [pentan-3-one] + O=S(=O)([N-]S(=O)(=O)C(F)(F)F)C(F)(F)F.OCCC[n+]1ccccc1 ?
a: 0.936

q: What do we get for Cc1cccc(C)c1 [1,3-dimethylbenzene] + O=S(=O)([N-]S(=O)(=O)C(F)(F)F)C(F)(F)F.OCCC[n+]1ccccc1 ?
a: 3.58

q: What do we get for Cc1ccccc1 [toluene] + O=S(=O)([N-]S(=O)(=O)C(F)(F)F)C(F)(F)F.OCCC[n+]1ccccc1 ?
a: 2.36

q: What do we get for CCC(C)(C)C [2,2-dimethylbutane] + O=S(=O)([N-]S(=O)(=O)C(F)(F)F)C(F)(F)F.OCCC[n+]1ccccc1 ?
a: 37.3

q: What do we get for CCCC(C)=O [pentan-2-one] + O=S(=O)([N-]S(=O)(=O)C(F)(F)F)C(F)(F)F.OCCC[n+]1ccccc1 ?
a: 0.885

q: What do we get for CC(C)=O [acetone] + O=S(=O)([N-]S(=O)(=O)C(F)(F)F)C(F)(F)F.OCCC[n+]1ccccc1 ?
a: 0.403

q: What do we get for CCCCO [butan-1-ol] + O=S(=O)([N-]S(=O)(=O)C(F)(F)F)C(F)(F)F.OCCC[n+]1ccccc1 ?
a: 2.27

q: What do we get for CCCOCCC [dipropyl ether] + O=S(=O)([N-]S(=O)(=O)C(F)(F)F)C(F)(F)F.OCCC[n+]1ccccc1 ?
a: 9.45
